What follows is a record of pIC50 for 5-hydroxytryptamine receptor 1A (Rattus norvegicus, UniProt P19327).
# log scale: pIC50 equals minus log10 of the concentration in mol/L

The examples below pair each entry with its known result.
[[record]]
chemical_string = "Cc1cc(C)cc(C2=CCN(CCNC(=O)c3cnc4ccccc4n3)CC2)c1"
endpoint_result = 6.76

[[record]]
chemical_string = "Cc1cc(C)cc(N2CCN(CCNC(=O)c3cnc4ccccc4n3)CC2)c1"
endpoint_result = 6.42

[[record]]
chemical_string = "O=C(NCCN1CC=C(c2ccccc2)CC1)c1cnc2ccccc2n1"
endpoint_result = 6.34


Now for a further molecule.
Query block: Look up pIC50 for this molecule: O=C(NCCN1CC=C(c2cc(F)cc(F)c2)CC1)c1cnc2ccccc2n1
Result block: 7.02

All figures here come from ChEMBL document CHEMBL3259622.
